assay: Nrf2 qHTS screen for inhibitors; settings: A549 ARE-Fluc reporter, luciferase luminescence, 18-24 h; series mostly up to 46 µM; note: nearly all actives have a fitted effect of over 60% in size
Hit rate of the full screen: of about 360,000 compounds, about 7,500 (2.1%) were called active. Not shown: some 20% with an inconclusive outcome. Calls come from the whole dose curve; as a rule, active = well fitted inhibition curve with a large enough effect; inconclusive = small, poorly fitted or top-dose-only effect, or effect the other way; inactive = flat fitted curve, though single readings scatter. This excerpt belongs to a sample that is enriched for actives.
Pick one and only one: active, inactive

{"COMPOUND": "CCN(CC)C(=O)[C@H]1CC(CC(=O)NCc2ccco2)C(=O)N2CCc3c([nH]c4ccccc34)[C@]12C (some centres not stated)", "CAT": "inactive"}
{"COMPOUND": "COc1ccc(C2=NC3(CCCCC3)N(CC(=O)Nc3ccc(C(C)C)cc3)C2=O)cc1", "CAT": "inactive"}
{"COMPOUND": "CSC(=S)N/N=C/c1c[nH]c2ccccc12", "CAT": "inactive"}
{"COMPOUND": "Cc1nc(N2CCN(c3ccccn3)CC2)c2c(C)c(C(=O)Nc3ccc(F)c(Cl)c3)sc2n1", "CAT": "active"}
{"COMPOUND": "O=C(CN1CCN(c2ccc(Cl)cc2)CC1)N1CCCC1", "CAT": "inactive"}

Please let me know the test result on file for `C[n+]1ccc(/C=C/c2c[nH]c3ccccc23)cc1` .
active

Please let me know the test result on file for O=C(C1CCCN(S(=O)(=O)c2cccc3nonc23)C1)N1CCN(c2ccccc2F)CC1 (configuration not stated) .
inactive

Please let me know the test result on file for `CCOC(=O)c1cnc(SCC(=O)Nc2cccc(OC)c2)nc1N` .
active

Please let me know the test result on file for `O=C(c1c(F)cccc1Cl)N1CCN(c2ccccn2)CC1` .
inactive

Please let me know the test result on file for `CCOC(=O)c1c(-c2ccccc2)oc2ccc(OCC(N)=O)cc12` .
inactive

Please let me know the test result on file for COc1ccc(NC(=O)C2CCCN(S(=O)(=O)c3cccc4cccnc34)C2)cc1OC (configuration not stated) .
inactive

Please let me know the test result on file for `CCOC(=O)c1cnc(-n2nc(C)cc2C)nc1Nc1cccc(C(C)=O)c1` .
inactive

Please let me know the test result on file for `CCOC(=O)c1cnc(SCC(=O)NCc2ccco2)nc1N` .
inactive
